The origin of these recorded values is ChEMBL document CHEMBL5058564.

# Tested on: U2OS
# Assay protocol: Incucyte cell viability with U2OS; also: unitless GR value; below 1 slowed growth and below 0 cell loss
# Type: toxicity, cell-based
# Measurement conditions: human, 18 h, 10 µM, compound concentration 10 uM, replicate number 1, timepoint 18 hours
# reported Growth Rate; entries follow
// no unit string in output, number only

Solved entries:
INSERT INTO measurements (compound, target_or_test_system, reported_measurement) VALUES
  ('COc1cc(OC)cc(C(=O)NNC(=O)Nc2cccc3ccccc23)c1', 'U2OS', 0.78),
  ('CCCCCC(O)/C=C/[C@H]1C(=O)CC(O)C1C/C=C\CCCC(=O)O (some centres not stated)', 'U2OS', 0.66),
  ('Cc1c(Cc2ccc3ccccc3n2)c2cc(F)ccc2n1CC(=O)O', 'U2OS', 0.63),
  ('COCCCN1CCC(NC(=O)c2cc(Cl)c(N)c3c2OCC3)CC1 [PRUCALOPRIDE]', 'U2OS', 0);

Incoming: Looking for the measured Growth Rate of "C[C@@H]1CC(=O)Nc2cccc(-c3ccc4c(c3)c(-c3cnn(C)c3)nn4C)c2N1" , can you help?
Outgoing: 0.7

Incoming: Proceed to O=c1ccn([C@@H]2O[C@H](COP(=O)([O-])OP(=O)([O-])OP(=O)([O-])OP(=O)([O-])OC[C@H]3O[C@@H](n4ccc(=O)[nH]c4=O)[C@H](O)[C@@H]3O)[C@@H](O)[C@H]2O)c(=O)[nH]1.[Na+].[Na+].[Na+].[Na+] [DIQUAFOSOL TETRASODIUM]
Outgoing: 0.88

Incoming: Now the same for Br.Cc1cccc(C2CN(C)CCc3c2cc(O)c(O)c3Cl)c1 (configuration not stated)
Outgoing: 0.87

Incoming: Request: "CNc1nc(NCc2ncccn2)c2c(-c3ccc4ncccc4c3)c[nH]c2n1"
Outgoing: 0.27

Incoming: Also, "Cc1cc(C)cc([C@H]2c3cc(C)ccc3NC(=O)CN2C(=O)c2ccc(Br)s2)c1" please.
Outgoing: 0.52

Incoming: Can you handle "CC(C)Oc1ccc(-c2nc(-c3cccc4c3CC[C@@H]4NCCO)no2)cc1C#N" next?
Outgoing: 0.41

Incoming: "Nc1nc(CC(=O)Nc2ccc(CCNC[C@H](O)c3ccccc3)cc2)cs1" , same question.
Outgoing: 0.54

Incoming: Request: "NC(=O)c1ccc(CNC(=O)NC[C@H]2CN(Cc3ccc(Cl)c(Cl)c3)CCO2)cc1"
Outgoing: 0.91

* * *

# Tested on: Fibroblast
# Assay protocol: Incucyte cell viability with human fibroblast; also: unitless GR value; below 1 slowed growth and below 0 cell loss
# Type: toxicity, cell-based
# Measurement conditions: 18 h, 10 µM, compound concentration 10 uM, replicate number 2, timepoint 18 hours
Cut-off 0.7 on Growth Rate, inclusive. At or above means 1 (yes); below means 0 (no).

Solved cases below.
INSERT INTO assay_data (molecule, cat) VALUES
  ('N#Cc1c(Oc2cccc(OS(=O)(=O)CCCC(F)(F)F)c2)cccc1C(F)(F)F', '0 (no)'),
  ('CC[C@H]1CN2CCc3cc(OC)c(OC)cc3[C@@H]2C[C@@H]1C[C@H]1NCCc2cc(OC)c(OC)cc21 [EMETINE]', '0 (no)'),
  ('CNC(=O)[C@H]1O[C@@H](n2cnc3c(NCc4cccc(I)c4)ncnc32)[C@H](O)[C@@H]1O [IB-MECA]', '0 (no)');

Incoming: Is the recorded value of Growth Rate equal to or greater than 0.7 for this molecule? "CN(C)C(=O)N1CC[C@H](NC2=Nc3cc(F)ccc3N(CC(F)F)c3ccc(Cl)cc32)C1"
Outgoing: 1 (yes)

Incoming: Can you check "CCOc1ccc(Cc2nc3cc(C(=O)N(CC)CC)ccc3n2CC2CCCCC2)cc1" next?
Outgoing: 1 (yes)

Incoming: Moving on to the next molecule: "Cc1ccccc1N1CCN(S(=O)(=O)C[C@]23CC[C@H](C[C@@H]2NC(=O)[C@@H](N)CCS(C)(=O)=O)C3(C)C)CC1.Cl"
Outgoing: 1 (yes)

Incoming: Please give the result for COc1cc2c(Oc3ccc(NC(=O)C4(C(=O)Nc5ccc(F)cc5)CC4)cc3F)ccnc2cc1OCCCN1CCOCC1 [FORETINIB] too.
Outgoing: 0 (no)

Incoming: How about C[C@@H](O[C@H]1OCCN(Cc2n[nH]c(=O)[nH]2)[C@H]1c1ccc(F)cc1)c1cc(C(F)(F)F)cc(C(F)(F)F)c1 [APREPITANT] ?
Outgoing: 0 (no)

* * *

# Test system: Fibroblast
# Assay protocol: Incucyte cell viability with human fibroblast; also: unitless GR value; below 1 slowed growth and below 0 cell loss
# Format: toxicity, cell-based
# Measurement conditions: 12 h, 10 µM, compound concentration 10 uM, replicate number 1, timepoint 12 hours
// map Growth Rate to label using class 1: < -0.2; class 2: ≥ -0.2 and < 0.5; class 3: ≥ 0.5

# example entries with known answers
INSERT INTO results (compound, cat) VALUES
  ('Cc1cc(-c2ccc3c(c2)CC[C@H]3N2CC3(CCN(C(=O)Cc4cn5cc(C)sc5n4)CC3)C2)ncn1 [PF-5190457]', 'class 2'),
  ('CN1CCN(c2nc3cc(C(F)(F)F)ccc3n3cccc23)CC1.O=C(O)/C=C\C(=O)O.O=C(O)/C=C\C(=O)O', 'class 3'),
  ('CC(C)N(CCCCOCC(=O)NS(C)(=O)=O)c1cnc(-c2ccccc2)c(-c2ccccc2)n1 [SELEXIPAG]', 'class 3'),
  ('O=C1[C@H](Cc2ccc(O)cc2)N2C(=O)CCN(C(=O)NCc3ccccc3)[C@H]2CN1Cc1cccc2ccccc12', 'class 1'),
  ('Cc1cc(=O)n(C)c2cc(N3C(=O)CC[C@H](NS(=O)(=O)CC(C)C)[C@H]3c3ccc(Cl)cc3)ccc12', 'class 1');

Incoming: Just checking, what class would you give "O=C(Nc1cc(C(F)(F)F)ccc1N1CCN(Cc2ccccn2)CC1)c1ccc(-c2ccncc2)o1" here?
Outgoing: class 2

Incoming: Consider next the compound Cc1cc(Nc2ncc(Cl)c(Nc3ccccc3S(=O)(=O)C(C)C)n2)c(OC(C)C)cc1C1CCNCC1 [CERITINIB] in the same way.
Outgoing: class 1

Incoming: Also Nc1ncnc2c1ncn2[C@@H]1O[C@H](CO)[C@@H](O)[C@H]1O [ADENOSINE] ?
Outgoing: class 3

Incoming: Same question, Cc1c(C(=O)Nc2ccc(N3C[C@@H](C)O[C@@H](C)C3)nc2)cccc1-c1ccc(OC(F)(F)F)cc1 [SONIDEGIB] this time
Outgoing: class 2

Incoming: # iterate: "Cc1cc(C)cc([C@H]2c3cc(C)ccc3NC(=O)CN2C(=O)c2ccc(Br)s2)c1"
Outgoing: class 3

* * *

# Tested on: HEK-293T
# Assay protocol: Incucyte cell viability with HEK293T; also: unitless GR value; below 1 slowed growth and below 0 cell loss
# Format: toxicity, cell-based
# Measurement conditions: human, 24 h, 10 µM, compound concentration 10 uM, replicate number 1, timepoint 24 hours
Readout name: Growth Rate

INSERT INTO results (compound, target_or_test_system, reported_measurement) VALUES
  ('OC[C@H]1O[C@@H](n2cnc3c(NC4CCCC4)ncnc32)[C@H](O)[C@@H]1O', 'HEK-293T', 0.73),
  ('Cl.Clc1cccc(Cl)c1NC1=NCCN1 [CLONIDINE HYDROCHLORIDE]', 'HEK-293T', 0.85),
  ('O=C1NC(NC23CC4CC(CC(C4)C2)C3)=N/C1=C\c1ccc2ncsc2c1', 'HEK-293T', 0.01);

Incoming: Write down the reported Growth Rate of "C[C@@H](OC[C@@]1(c2ccccc2)CC[C@]2(CCC(=O)N2)CN1)c1cc(C(F)(F)F)cc(C(F)(F)F)c1" , test system: HEK-293T.
Outgoing: 0.89

* * *

# Test system: Fibroblast
# Assay protocol: Incucyte cell viability with human fibroblast; also: unitless GR value; below 1 slowed growth and below 0 cell loss
# Assay type: toxicity, cell-based
# Measurement conditions: 6 h, 10 µM, compound concentration 10 uM, replicate number 2, timepoint 6 hours
Readout name: Growth Rate

INSERT INTO assay_data (compound, readout_name, reported_measurement) VALUES
  ('CN(C)C/C=C/C(=O)Nc1ccc(C(=O)N2CCCC(Nc3ncc(Cl)c(-c4c[nH]c5ccccc45)n3)C2)cc1 (centres undefined)', 'Growth Rate', -0.55),
  ('COc1ncc2cc(C(=O)Nc3cc(C(=O)NCc4cccc(Cl)c4)ccc3Cl)c(=O)[nH]c2n1', 'Growth Rate', -0.3),
  ('COc1cc2c(Oc3ccc(NC(=O)C4(C(=O)Nc5ccc(F)cc5)CC4)cc3F)ccnc2cc1OCCCN1CCOCC1', 'Growth Rate', -1);

Could you now look at the following compound, please?
Incoming: Please report the recorded Growth Rate for "Cl.O=C(O)c1cc(-c2ccc(C3CCNCC3)cc2)c2ccc(-c3ccc(C(F)(F)F)cc3)cc2c1" .
Outgoing: 0.67

* * *

# Test system: HEK-293T
# Assay protocol: Incucyte cell viability with HEK293T; also: unitless GR value; below 1 slowed growth and below 0 cell loss
# Type: toxicity, cell-based
# Measurement conditions: human, 12 h, 10 µM, compound concentration 10 uM, replicate number 1, timepoint 12 hours
Each entry gets NOT MET if its Growth Rate stays under 0.8, and MET if its Growth Rate is 0.8 or above.

INSERT INTO results (molecule, cat) VALUES
  ('CN(C)CCCc1cc(C(=O)Nc2ccc(-c3ccncc3)cc2)ccc1O.Cl.Cl', 'NOT MET'),
  ('O=c1ccc2ccc(OCCCCN3CCN(c4cccc5sccc45)CC3)cc2[nH]1', 'NOT MET'),
  ('Oc1c(CN2CCN(c3ccccn3)CC2)cc(Cl)c2cccnc12', 'NOT MET'),
  ('Cn1cc(C(=O)OCC2CCN(CCNS(C)(=O)=O)CC2)c2ccccc21', 'NOT MET'),
  ('Cc1nn(C)c(C)c1-c1cccc2c1CC[C@H](N(C)C)C2', 'MET');

Incoming: Is the recorded value of Growth Rate equal to or greater than 0.8 for this molecule? "CC(C)(C)c1ccc(-c2coc3ccc(-c4cn[nH]c4)nc23)cc1"
Outgoing: NOT MET

Incoming: Can you check "c1ccc(NCc2ccc(CNc3ccccn3)cc2)nc1" next?
Outgoing: NOT MET

Incoming: Now this one: "Cc1cc(C)cc([C@@H]2c3cc(C)ccc3NC(=O)CN2C(=O)c2ccc(Br)s2)c1"
Outgoing: NOT MET

Incoming: Same question, "N#Cc1c(N)nc(SCc2csc(-c3ccc(Cl)cc3)n2)c(C#N)c1-c1ccc(OCCO)cc1" this time
Outgoing: NOT MET

Incoming: Follow-up entry: "CN[C@@H](C)C(=O)N[C@H]1CCCC[C@H]2CC[C@@H](C(=O)N[C@@H](c3ccccc3)c3cn(CCCCc4ccc(CCCCn5cc([C@@H](NC(=O)[C@@H]6CC[C@@H]7CCCC[C@H](NC(=O)[C@H](C)NC)C(=O)N76)c6ccccc6)nn5)cc4)nn3)N2C1=O"
Outgoing: NOT MET

Incoming: Another molecule: "CC(C)c1cc(Oc2c(Cl)cc(-n3nc(C#N)c(=O)[nH]c3=O)cc2Cl)n[nH]c1=O"
Outgoing: NOT MET

Incoming: Another molecule to look at: "CSc1cc2c(cc1C(F)(F)F)N(C(=O)Nc1cccnc1)CC2"
Outgoing: NOT MET

Incoming: Now try "O=C(NCC(=O)N1CC[C@H](N[C@H]2CC[C@@](O)(c3ccc(-c4ncccn4)cn3)CC2)C1)c1cccc(C(F)(F)F)c1" .
Outgoing: NOT MET
